melting point values by entry

// below: answered compounds
- COMPOUND: "CCCCC1(CC)OCc2c1cnc(C)c2OCC(=O)O (stereo not given)"
  melting point: "193 °C"
- COMPOUND: "Cc1nc[nH]c1CSCCNC(=N)NS(N)(=O)=O"
  melting point: "130 to 133 °C"
- COMPOUND: "O=C(Nc1ccc(C(=O)N2CCCc3ccccc32)cc1)c1ccc(CO)cc1"
  melting point: "224 to 226 °C"
- COMPOUND: "CCc1nc(SC)c(C(=O)O)n1Cc1ccc(-c2ccccc2S(=O)(=O)NC(=O)NCc2ccccc2)cc1"
  melting point: "164 °C"
- COMPOUND: "CCOC(=O)N1CCCc2cc(C(=O)CCCl)ccc21"
  melting point: "78 to 79 °C"
- COMPOUND: "CCOC(=O)[C@H](COCc1ccccc1)NC(=O)C(C)(C)NC(=O)[C@@H](SC(C)=O)C(C)C"
  melting point: "55 to 57 °C"

Query: # melting point lookup, item O=[N+]([O-])c1cn2c(n1)O[C@@H](CN1CCN(Cc3ccc(-c4ccccc4)cc3)CC1)C2
Reply: 207 to 208 °C

Query: # melting point lookup, item CCC1(CCCCN2CCN(c3cccc(Cl)c3)CC2)C(=O)Nc2ccc(Cl)cc21 (stereo not given)
Reply: 139 to 142 °C

Query: # melting point lookup, item O=[N+]([O-])c1ccc(CO)c(Sc2ccccc2O)c1
Reply: 131 to 133 °C

Query: # melting point lookup, item CC(=NNc1c(Cl)cc(C(F)(F)F)cc1Cl)C(=NO)C(=O)Nc1ccccc1
Reply: 185 to 186 °C

###

MEASURED_ATTRIBUTE: melting point

- COMPOUND: "O=[N+]([O-])c1ccc(Oc2ccccc2)cc1OCc1ccccc1"
  RESULT: "96 to 98 °C"

Query: # melting point lookup, item O=C(Nc1ccccc1)O[C@@H]1CN=C(c2ccc(OC(F)(F)F)cc2)O[C@H]1c1ccccc1 (racemic)
Reply: 128 °C

Query: # melting point lookup, item O=[N+]([O-])c1ccc(NCC23CCCN2CCC3)c2ccccc12
Reply: 143 to 144 °C

Query: # melting point lookup, item O=C(O)Cc1c(Cl)nc(-c2cc([N+](=O)[O-])c(Cl)c([N+](=O)[O-])c2)n1Cc1ccccc1
Reply: 100 to 105 °C

Query: # melting point lookup, item Cc1cc(-c2cc(F)c(F)cc2-c2ccc(S(C)(=O)=O)cc2)ccc1Cl
Reply: 152 °C

Query: # melting point lookup, item CSc1c(O[C@H]2CC[C@H](N)CC2)ccc2[nH]ncc12
Reply: 138 to 140 °C

Query: # melting point lookup, item CNC(=O)N(O)Cc1ccoc1
Reply: 129 to 131 °C

Query: # melting point lookup, item O=C1Nc2ccc(Cl)cc2Cn2nnnc21
Reply: 260 to 264 °C

Query: # melting point lookup, item O=C(Cl)c1c2ccccc2nc2ccccc12
Reply: 135 °C

Query: # melting point lookup, item CC12CCC(=O)C=C1NCC1C2CCC2(C)C(C(=S)c3ccccn3)CCC12 (stereo not given)
Reply: 190 to 202 °C

###

MEASURED_ATTRIBUTE: melting point

Query: # melting point lookup, item COc1cc(C2COc3c(C)c(C)c(NC(=O)CC(C)(C)C)c(C)c32)ccc1C(C)C (configuration not stated)
Reply: 170 to 171 °C

Query: # melting point lookup, item COc1ccc2[nH]c(-c3ccccc3N)cc2c1
Reply: 198 to 200 °C
